system: Echinoidea; assay: Calcium-mobilizing activity in Sea urchin egg homogenate relative to cADPcR; assay type: functional
Listing of entries alongside the reported Activity.
A bare number is not enough; add the unit after it.

Here's what some known entries look like.
smiles.input	Activity
[N-]=[N+]=Nc1nc2c(N)[n+]3cnc2n1[C@@H]1O[C@H](COP(=O)(O)OP(=O)([O-])OC[C@@H]2C[C@@H](O)[C@H]3C2)[C@@H](O)[C@H]1O	16%
Nc1c2nc(Cl)n3c2nc[n+]1[C@@H]1C[C@H](COP(=O)([O-])OP(=O)(O)OC[C@H]2O[C@@H]3[C@H](O)[C@@H]2O)C[C@H]1O	21%
Nc1nc2c(N)[n+]3cnc2n1[C@@H]1O[C@H](COP(=O)(O)OP(=O)([O-])OC[C@@H]2C[C@@H](O)[C@H]3C2)[C@@H](O)[C@H]1O	14%
Nc1c2ncn3c2nc[n+]1[C@@H]1C[C@H](COP(=O)([O-])OP(=O)(O)OC[C@H]2O[C@@H]3[C@H](O)[C@@H]2O)C[C@H]1O	100%

Lab note: need Activity for `Nc1nc2c(N)[n+]3cnc2n1[C@@H]1O[C@H](COP(=O)([O-])OP(=O)(O)OC[C@H]2C[C@@H]3[C@H](O)[C@@H]2O)[C@@H](O)[C@H]1O` on Echinoidea, anyone have it?
33%

----------
Item-by-item account of pIC50
tested on: Echinoidea; experiment: Inhibition of cADPcR-induced calcium release in Sea urchin egg homogenate; assay type: functional
pIC50 here is simply -log10 of the concentration when that concentration is written in mol/L.

smiles.input	target.or.test.system	outcome.measure	reading
Nc1c2nc(Cl)n3c2nc[n+]1[C@@H]1C[C@H](COP(=O)([O-])OP(=O)(O)OC[C@H]2O[C@@H]3[C@H](O)[C@@H]2O)C[C@H]1O	Echinoidea	pIC50	6.39
[N-]=[N+]=Nc1nc2c(N)[n+]3cnc2n1[C@@H]1O[C@H](COP(=O)(O)OP(=O)([O-])OC[C@@H]2C[C@@H](O)[C@H]3C2)[C@@H](O)[C@H]1O	Echinoidea	pIC50	5.96
Nc1nc2c(N)[n+]3cnc2n1[C@@H]1O[C@H](COP(=O)([O-])OP(=O)(O)OC[C@H]2C[C@@H]3[C@H](O)[C@@H]2O)[C@@H](O)[C@H]1O	Echinoidea	pIC50	7.02
Nc1nc2c(N)[n+]3cnc2n1[C@@H]1O[C@H](COP(=O)(O)OP(=O)([O-])OC[C@@H]2C[C@@H](O)[C@H]3C2)[C@@H](O)[C@H]1O	Echinoidea	pIC50	7.36
[N-]=[N+]=Nc1nc2c(N)[n+]3cnc2n1[C@@H]1O[C@H](COP(=O)(O)OP(=O)([O-])OC[C@H]2C[C@@H]3[C@H](O)[C@@H]2O)[C@@H](O)[C@H]1O	Echinoidea	pIC50	5.38

Continue with the compound presented below.
Fill in: pIC50 of `Nc1c2nc(Cl)n3c2nc[n+]1[C@@H]1C[C@H](COP(=O)(O)OP(=O)([O-])OC[C@H]2O[C@@H]3[C@H](O)[C@@H]2O)[C@@H](O)[C@H]1O` is ___
5.52

Values from ChEMBL document CHEMBL1142928
